# Lookup of reported EC50 keyed by entry
system name: Delta-type opioid receptor (Homo sapiens)
Sequence (P41143 whole entry): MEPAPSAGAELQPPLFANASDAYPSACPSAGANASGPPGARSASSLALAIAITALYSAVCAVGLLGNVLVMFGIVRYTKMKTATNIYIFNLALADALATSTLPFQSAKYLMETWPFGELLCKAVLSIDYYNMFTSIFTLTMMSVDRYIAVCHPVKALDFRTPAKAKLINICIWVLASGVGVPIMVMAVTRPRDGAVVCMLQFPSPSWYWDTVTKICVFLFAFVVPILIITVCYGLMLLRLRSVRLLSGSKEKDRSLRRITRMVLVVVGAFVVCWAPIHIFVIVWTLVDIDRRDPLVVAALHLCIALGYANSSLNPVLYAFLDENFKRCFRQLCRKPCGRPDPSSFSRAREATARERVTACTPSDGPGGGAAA
assay comment: Counterscreen for agonists of heterodimerization of the mu 1 (OPRM1) and delta 1 (OPRD1) opioid receptors: Luminescence-based cell-based high throughput dose response assay to identify agonists of OPRD1 homodimerization. [Related pubchem assays (depositor defined):AID504326, AID504355, AID504692, AID504904, AID504905]
Assay type: functional
Active and inactive are the calls of the source.

molecule: CCOC(=O)C1(CC2CCCCO2)CCN(Cc2nc(-c3cccs3)oc2C)CC1 (configuration not stated)
EC50: > 92.5 µM (inactive)

molecule: Cc1ccc(CC(=O)NCC(c2ccco2)N(C)C)cc1C (configuration not stated)
EC50: > 92.4 µM (inactive)

molecule: CC1CN(C)C(C)c2c1oc1ccc(N)cc21 (configuration not stated)
EC50: > 92.5 µM (inactive)

molecule: CC(=O)Nc1ccc(S(=O)(=O)NC2=C(N3CCN(Cc4ccccc4)CC3)C(=O)c3ccccc3C2=O)cc1
EC50: > 92.4 µM (inactive)

molecule: CCc1ccc(NC(=O)Nc2ccc3c(c2)N(C)C(=O)CS3)cc1
EC50: 35.7 µM (inactive)

molecule: COc1ccc(-c2nn(-c3ccccc3C)cc2CNCc2cccnc2)cc1F
EC50: > 92.5 µM (inactive)

molecule: O=C(N[C@H]1C/C=C\C[C@H](CC(=O)N(CCO)Cc2ccccc2)C(=O)N[C@H](Cc2c[nH]c3ccccc23)COC1=O)OCC1c2ccccc2-c2ccccc21
EC50: > 92.5 µM (inactive)

====

# Lookup of reported EC50 keyed by entry
system name: Peroxisome proliferator-activated receptor gamma/Nuclear receptor coactivator 1 (Homo sapiens, UniProt P37231)
Sequence (P37231 whole entry): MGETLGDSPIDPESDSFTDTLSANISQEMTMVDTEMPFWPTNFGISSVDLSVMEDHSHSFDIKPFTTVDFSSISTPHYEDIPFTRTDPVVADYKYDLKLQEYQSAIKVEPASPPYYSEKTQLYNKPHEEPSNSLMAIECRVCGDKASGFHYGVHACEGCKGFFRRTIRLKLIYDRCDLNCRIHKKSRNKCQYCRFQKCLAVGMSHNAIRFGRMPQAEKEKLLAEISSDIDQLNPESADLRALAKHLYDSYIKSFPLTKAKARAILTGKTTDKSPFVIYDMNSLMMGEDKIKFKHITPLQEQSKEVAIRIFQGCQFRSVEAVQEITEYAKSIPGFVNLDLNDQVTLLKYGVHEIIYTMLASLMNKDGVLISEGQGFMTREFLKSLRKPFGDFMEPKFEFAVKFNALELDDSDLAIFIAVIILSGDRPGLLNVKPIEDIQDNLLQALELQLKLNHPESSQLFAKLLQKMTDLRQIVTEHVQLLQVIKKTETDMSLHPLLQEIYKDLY
Sequence (Q15788 whole entry, further chain): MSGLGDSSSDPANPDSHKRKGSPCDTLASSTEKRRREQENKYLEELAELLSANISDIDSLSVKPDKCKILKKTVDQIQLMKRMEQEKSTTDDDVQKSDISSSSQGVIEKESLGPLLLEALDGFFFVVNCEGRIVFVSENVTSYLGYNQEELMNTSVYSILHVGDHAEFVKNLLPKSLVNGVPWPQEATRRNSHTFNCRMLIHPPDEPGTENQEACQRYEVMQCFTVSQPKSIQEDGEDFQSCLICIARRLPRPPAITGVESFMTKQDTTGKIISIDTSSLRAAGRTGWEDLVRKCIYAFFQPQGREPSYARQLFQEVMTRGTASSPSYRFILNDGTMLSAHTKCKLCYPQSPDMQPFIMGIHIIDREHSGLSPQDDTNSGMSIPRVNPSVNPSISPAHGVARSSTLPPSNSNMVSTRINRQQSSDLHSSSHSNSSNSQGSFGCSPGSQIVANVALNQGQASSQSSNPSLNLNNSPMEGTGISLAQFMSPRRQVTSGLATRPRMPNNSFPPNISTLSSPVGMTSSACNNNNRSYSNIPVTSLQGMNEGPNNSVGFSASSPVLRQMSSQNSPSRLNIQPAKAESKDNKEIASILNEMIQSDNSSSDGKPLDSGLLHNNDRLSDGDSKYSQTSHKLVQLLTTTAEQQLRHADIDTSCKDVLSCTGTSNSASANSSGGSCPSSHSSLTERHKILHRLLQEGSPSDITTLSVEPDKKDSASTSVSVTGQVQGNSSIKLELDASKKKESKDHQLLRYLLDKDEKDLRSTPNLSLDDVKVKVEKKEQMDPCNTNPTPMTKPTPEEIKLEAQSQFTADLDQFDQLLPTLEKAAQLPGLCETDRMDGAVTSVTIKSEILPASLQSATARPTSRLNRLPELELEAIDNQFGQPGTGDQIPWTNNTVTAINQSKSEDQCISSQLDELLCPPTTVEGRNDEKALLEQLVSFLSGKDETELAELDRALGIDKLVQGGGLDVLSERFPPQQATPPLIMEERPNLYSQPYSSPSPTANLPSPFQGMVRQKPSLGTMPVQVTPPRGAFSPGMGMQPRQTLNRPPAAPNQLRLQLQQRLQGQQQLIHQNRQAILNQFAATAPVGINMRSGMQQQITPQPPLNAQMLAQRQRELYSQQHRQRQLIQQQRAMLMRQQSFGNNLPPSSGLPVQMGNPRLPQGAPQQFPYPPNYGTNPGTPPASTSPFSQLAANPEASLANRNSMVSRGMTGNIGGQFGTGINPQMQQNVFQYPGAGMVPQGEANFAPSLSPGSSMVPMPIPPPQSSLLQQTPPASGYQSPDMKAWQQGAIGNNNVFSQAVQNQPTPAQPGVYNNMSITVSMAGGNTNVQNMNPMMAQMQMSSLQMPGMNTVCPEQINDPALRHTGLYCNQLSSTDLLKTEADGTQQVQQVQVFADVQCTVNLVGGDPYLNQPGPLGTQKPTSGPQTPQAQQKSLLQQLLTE
assay comment: TR-FRET dose response biochemical High Throughput Screening assay for agonists of the steroid receptor coactivator 1 (SRC-1) recruitment by the peroxisome proliferator-activated receptor gamma (PPAR gamma): non-selective agonists. [Related pubchem assays (depositor defined):AID1300, AID1808, AID504735, AID631]
Assay type: protein assay
Active and inactive are the calls of the source.
endpoint: EC50

record smiles: COc1ccccc1-c1nnc(S)o1
reported result: 59.1 µM (inactive)
//
record smiles: CN1/C(=C\C=C\C2=[N+](C)c3ccc4ccccc4c3C2(C)C)C(C)(C)c2ccccc21.[O-][Cl+3]([O-])([O-])[O-]
reported result: 13.4 µM (inactive)
//
record smiles: CCn1c(=O)cc(SCC(=O)N2CCOCC2)c2ccccc21
reported result: > 79.4 µM (inactive)
//
record smiles: COc1ccccc1-c1n[nH]c(=S)n1-c1ccccc1
reported result: 10.5 µM (inactive)

====

system name: Corticotropin-releasing factor receptor 2/Corticotropin-releasing factor-binding protein (Homo sapiens, UniProt P24387+Q13324)
Sequence (Q13324 whole entry): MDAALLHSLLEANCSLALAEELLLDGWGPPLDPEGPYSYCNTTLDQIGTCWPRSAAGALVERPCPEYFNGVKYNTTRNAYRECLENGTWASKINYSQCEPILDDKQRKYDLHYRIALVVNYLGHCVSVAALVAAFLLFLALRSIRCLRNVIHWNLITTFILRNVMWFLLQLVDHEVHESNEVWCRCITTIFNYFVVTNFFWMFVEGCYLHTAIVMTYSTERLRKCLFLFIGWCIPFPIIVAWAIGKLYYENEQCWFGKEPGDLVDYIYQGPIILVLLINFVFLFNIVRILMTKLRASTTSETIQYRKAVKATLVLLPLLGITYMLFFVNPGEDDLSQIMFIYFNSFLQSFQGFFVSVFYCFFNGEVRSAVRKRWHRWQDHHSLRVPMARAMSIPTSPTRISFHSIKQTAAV
Sequence (P24387 whole entry): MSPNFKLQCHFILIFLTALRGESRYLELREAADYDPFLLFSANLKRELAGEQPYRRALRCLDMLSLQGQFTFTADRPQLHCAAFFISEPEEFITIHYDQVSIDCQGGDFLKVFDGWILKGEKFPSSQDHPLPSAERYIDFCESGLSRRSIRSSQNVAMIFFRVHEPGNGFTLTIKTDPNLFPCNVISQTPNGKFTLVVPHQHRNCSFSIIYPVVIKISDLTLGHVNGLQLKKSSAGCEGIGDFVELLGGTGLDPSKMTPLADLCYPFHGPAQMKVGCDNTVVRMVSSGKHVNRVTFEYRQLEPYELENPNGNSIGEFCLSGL
assay comment: Dose Response confirmation of uHTS hits for small molecule antagonists of the CRF-binding protein and CRF-R2 receptor complex.
Format: functional
test context: read-out: IC50_Mean
Active and inactive are the calls of the source.
# Lookup of reported IC50 keyed by entry
endpoint: IC50

compound: COC(=O)C1=C(C)N(Cc2ccccc2)C(=O)N[C@H]1CCc1ccccc1
reported result: > 47.1 µM (inactive)

compound: COc1ccc(-c2nn(-c3ccccc3C)cc2CNCc2cccnc2)cc1F
reported result: > 47.1 µM (inactive)

compound: CC(C)C(NS(=O)(=O)c1ccc2c(c1)oc(=O)n2C)C(=O)N1CCN(C2CCCCC2)CC1 (stereo not drawn)
reported result: > 47.1 µM (inactive)
